# tested system: T1, His-tagged cynomolgus monkey CD38 (ACRO Biosystems cat #CD8-05223) (cynomolgus monkey, UniProt Q5VAN0 43-301)
# T1 construct: bought recombinant protein with His tag
# test protocol: SPR, captured scFv-Fc, His-CD38 analyte;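 note: SPR on a Carterra LSA, scFv-Fc captured by anti-human Fc on HC30M chip, His-tagged CD38 (human, mouse, cynomolgus) flowed as analyte in eight 1:2 steps from 400 nM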
// values below are reported log10 Kd
property label: log10 Kd (log10 of the value in nM)

[
  {
    "binder": "40566p1.C9 (scFv, V domains shown, tested as scFv-Fc supernatant) VH: DVQLVESGGGVVRPGESLRLSCAASGFTFDNYDMTWVRQAPGEGLEWVSFISSRGTFTYYTDSVKGRFTISRDNSKNTLYLQMNSLRAEDTAIYYCTKDSGEYYFFDYWGLGTLVTVSS VL: ETVMTQSPATLSVSPGERATFSCRASQSVNSKLAWYQQKPGQAPRLLIYDASRRATGIPDRFSGSGSGTEFTLTISSLQSEDFAVYFCQQYYDWPPLTFGGGTKVEIK",
    "property label": "log10 Kd",
    "reported measurement": 0.67
  },
  {
    "binder": "40769p1.1.B10 (scFv, V domains shown, tested as scFv-Fc supernatant) VH: EVQLLESGGGLVQPGGSLRLSCTASGITFSRFNMFWVRQAPGKGLEFVASIRDDGSWTYYADSVKGRFTISRDNSKNTLYLQMNSLRAEDTAVYYCAKDYNSKDFIYHYVMDVWGQGTTVTVSS VL: QSVLTQPPSASGTPGQRVTISCSGRNSNIGNNVVNWYQQLPGTAPKLLIYRNQERPSGVPDRFSGSKSGTSASLAISGLQSEDEADYYCSTWDDSLNGWVFGGGTKLTVL",
    "property label": "log10 Kd",
    "reported measurement": 4.98
  },
  {
    "binder": "40566p1.F1 (scFv, V domains shown, tested as scFv-Fc supernatant; also called 40566p1.Fl) VH: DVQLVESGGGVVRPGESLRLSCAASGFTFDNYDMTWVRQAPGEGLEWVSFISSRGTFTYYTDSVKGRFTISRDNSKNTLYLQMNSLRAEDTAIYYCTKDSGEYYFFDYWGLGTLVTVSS VL: ETVMTQSPATLSVSPGERATFSCRASQSVNGKLAWYQQKPGQAPRLLIYDASRRATGIPDRFSGSGSGTEFTLTISSLQSEDFAVYYCQQYYDWPPLTFGGGTKVEIK",
    "property label": "log10 Kd",
    "reported measurement": 3.59
  },
  {
    "binder": "40617p1.2.H8 (scFv, V domains shown, tested as scFv-Fc supernatant) VH: EVQLLESGGGLVQPGGSLRLSCAASGFTFSSYWMTWVRQAPGKGLEWVSAISSYGGNYMYYADSVKGRFTISRDNSKDTLYLQMNSLRAEDTAVYYCAKDWDDGMDVWGQGTTVTVSS VL: EIVMTQSPATLSVSPGDRATLSCRASQSVNSKLAWYQQKPGQAPRLLIYAASSRATGIPDRFSGSGSGTDFTLTISRLEPEDFAVYYCQQYYDLPPYSFGGGTKVEIK",
    "property label": "log10 Kd",
    "reported measurement": 1.59
  },
  {
    "binder": "40769p1.2.B10 (scFv, V domains shown, tested as scFv-Fc supernatant) VH: EVQLLESGGGLVQPGGSLRLSCPASGFDFSSYWMTWVRQAPGKGLEWVSTITDSGGRAWYADSVRGRFTISRDNSKNTLYLQMNSLRAEDTAVYYCARDTPKTYYYYAMDVWGQGTTVTV VL: QSALTQPPSASGTPGQRVTISCSGSSSNIQYSYVSWYQQLPGTAPKLLIYNNVQRPSGVPDRFSGSKSGTSASLAISGLQSEDEADYYCATWDESLLGLWVFGGGTKLTVL",
    "property label": "log10 Kd",
    "reported measurement": 1.26
  }
]
